Target: Histone-lysine N-methyltransferase EHMT2 (Homo sapiens) (UniProt Q96KQ7)
Sequence (Q96KQ7 913-1193 limits assumed): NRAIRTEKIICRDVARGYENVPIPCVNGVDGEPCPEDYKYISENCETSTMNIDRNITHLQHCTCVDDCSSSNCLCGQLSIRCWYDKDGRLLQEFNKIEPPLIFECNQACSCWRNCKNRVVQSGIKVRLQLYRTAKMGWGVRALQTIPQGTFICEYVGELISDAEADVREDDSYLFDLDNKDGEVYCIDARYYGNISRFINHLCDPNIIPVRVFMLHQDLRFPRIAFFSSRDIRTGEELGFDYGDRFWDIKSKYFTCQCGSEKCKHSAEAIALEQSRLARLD
Test: qHTS Assay for Inhibitors of Histone Lysine Methyltransferase G9a; further: nearly all actives have a fitted effect of over 75% in size
Details: G9a H3K9 monomethylation, AlphaScreen, 2 h; series mostly up to 59 µM
Procedure: Methylated lysines, on the N-terminal tails of histone proteins serve as epigenetic markers to recruit factors that can then modify local chromatin structure to lead to functional consequences. […] Methylation of biotinylated-histone peptide is measured through specific antibody-based detection, in conjunction with streptavidin-coated donor and anti-IgG antibody-coated acceptor beads. […]
Hit rate of the full screen: of about 350,000 compounds, about 31,000 (8.9%) were called active. Inconclusive results (about 15%) are left out. The call rests on the fitted dose curve; in most records, active means well fitted inhibition curve with a large enough effect; inconclusive means small, poorly fitted or top-dose-only effect; inactive means no such curve, though single readings can be large or run the other way. The sample as a whole holds a higher share of actives than the screen did.
Could you please pick one outcome from this set? 1 = active, 0 = inactive

Request: Recorded test call requested for CC(C)Oc1ccc(S(=O)(=O)N2CCOCC2)cc1NC(=O)C1CSC2(C)CCC(=O)N12 (stereo unspecified)
Response: 1

Request: Recorded test call requested for CCCN(CCC)CCCNC(=O)Cn1cc2c(n1)-c1c(oc(C(=O)N3CCCC3)c1C)CC2
Response: 0

Request: Recorded test call requested for N#CCSc1nn(-c2ccc(F)cc2)c(=S)s1
Response: 0

Request: Recorded test call requested for Cc1c(C(=O)N(C)C)sc2c1c(=O)n(-c1ccc(F)cc1)c(=O)n2CC(=O)N(C)c1ccccc1
Response: 0

Request: Recorded test call requested for Cc1ccccc1-n1nc(SCC(=O)O)sc1=S
Response: 1

Request: Recorded test call requested for Cc1nnc(SCC(=O)NCc2ccccc2)s1
Response: 0

Request: Recorded test call requested for COc1ccc(CCNC(=O)CCCCn2c(=O)c3ccccc3n(Cc3ccccc3C)c2=O)cc1OC
Response: 0

Request: Recorded test call requested for CN(C)S(=O)(=O)N1CCC(Oc2cccc(C(=O)NCCCC3CCCC3)c2)CC1
Response: 0

Request: Recorded test call requested for COc1cc(CNCCSc2nnnn2C)ccc1OCc1ccc(Cl)cc1Cl
Response: 0

Request: Recorded test call requested for CC(C)CN(C(=O)c1ccc2c(c1)OCO2)C1CCS(=O)(=O)C1 (stereo unspecified)
Response: 0

Request: Recorded test call requested for CCc1nc2cccnc2n1-c1ccc(CC(=O)Nc2c(C)cccc2C)cc1
Response: 0

Request: Recorded test call requested for COc1ccc(Cl)cc1C(=O)OCC(=O)NCc1cccs1
Response: 0

Request: Recorded test call requested for CC(C)Oc1ccc(S(=O)(=O)N2CCOCC2)cc1NC(=O)C1CCCC1
Response: 0

Request: Recorded test call requested for CCc1cccc(C)c1NS(=O)(=O)c1ccc(-c2cc(C)no2)s1
Response: 0

Request: Recorded test call requested for O=C(Nc1ccc(F)cc1)N1CCCC(c2nc3c(nnn3Cc3ccccc3Cl)c(=O)[nH]2)C1 (stereo unspecified)
Response: 0

Request: Recorded test call requested for CCc1nc2cccnc2n1-c1ccc(C(=O)O)cc1
Response: 1

Request: Recorded test call requested for COc1ccc(CCNC(=O)Cn2c(=O)n(-c3ccccc3)c(=O)c3c(C)c(C)sc32)cc1OC
Response: 0

Request: Recorded test call requested for COc1ccc(C2c3c(oc4ccccc4c3=O)C(=O)N2Cc2ccc3c(c2)OCO3)cc1 (stereo unspecified)
Response: 0

Request: Recorded test call requested for CCC(=O)N1CCc2cc(CNS(=O)(=O)c3ccc(Br)s3)ccc21
Response: 0

Request: Recorded test call requested for CCN(CC)S(=O)(=O)c1ccc(N2CCOCC2)c(NC(=O)C2CSC3(C)CCC(=O)N23)c1 (stereo unspecified)
Response: 0

Request: Recorded test call requested for CC(NC(=O)c1ccccc1SCC(=O)N1CCCC1)c1ccccc1 (stereo unspecified)
Response: 0
